Each recorded value in this set is attributed to ChEMBL document CHEMBL1132230.

Target: Muscarinic acetylcholine receptor M1 (Homo sapiens, UniProt P11229)
Sequence (P11229 whole entry): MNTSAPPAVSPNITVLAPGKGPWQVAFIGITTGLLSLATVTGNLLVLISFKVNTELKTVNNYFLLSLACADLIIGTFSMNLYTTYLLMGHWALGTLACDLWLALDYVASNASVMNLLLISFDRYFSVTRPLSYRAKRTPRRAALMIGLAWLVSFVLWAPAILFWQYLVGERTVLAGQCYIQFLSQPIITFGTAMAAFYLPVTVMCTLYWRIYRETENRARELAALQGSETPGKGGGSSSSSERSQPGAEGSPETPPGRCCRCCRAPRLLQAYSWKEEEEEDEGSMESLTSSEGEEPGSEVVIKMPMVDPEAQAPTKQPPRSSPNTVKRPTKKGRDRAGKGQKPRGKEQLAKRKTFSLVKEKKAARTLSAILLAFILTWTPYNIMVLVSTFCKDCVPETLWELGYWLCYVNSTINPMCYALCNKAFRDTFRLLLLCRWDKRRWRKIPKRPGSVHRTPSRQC
Experiment: Compound was tested for its ability to stimulate phosphoinositol (PI) hydrolysis in the mouse fibroblast cell line A9L-M1 expressing Muscarinic acetylcholine receptor M1 (100 uM concentration)
Assay type: functional, cell-based
observation.type: pEC50
In plain terms, pEC50 is the concentration in mol/L turned into minus its base-10 logarithm.

Using the record for Fc1cccc(C#CCOc2nsnc2C23CN4CC2C3C4)c1 , report its pEC50. 8.31

###

Molecular target: Muscarinic acetylcholine receptor M2 (Homo sapiens) (UniProt P08172)
Sequence (whole entry): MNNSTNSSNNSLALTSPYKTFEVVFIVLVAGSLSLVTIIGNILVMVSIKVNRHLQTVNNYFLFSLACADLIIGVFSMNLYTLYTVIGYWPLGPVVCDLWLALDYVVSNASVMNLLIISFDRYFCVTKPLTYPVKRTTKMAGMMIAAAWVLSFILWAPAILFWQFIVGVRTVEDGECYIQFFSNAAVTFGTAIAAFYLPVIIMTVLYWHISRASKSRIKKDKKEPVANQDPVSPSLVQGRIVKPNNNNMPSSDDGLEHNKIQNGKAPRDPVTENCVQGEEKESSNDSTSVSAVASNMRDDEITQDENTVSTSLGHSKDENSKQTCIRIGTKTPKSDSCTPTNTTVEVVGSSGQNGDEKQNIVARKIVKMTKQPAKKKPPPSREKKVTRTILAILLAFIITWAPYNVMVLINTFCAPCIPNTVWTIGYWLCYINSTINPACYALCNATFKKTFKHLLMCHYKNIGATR
Experiment: Inhibition of forskolin induced c-AMP formation in CHO-M2 cells expressing human M2 receptor.
Assay type: functional, cell-based
observation.type: Max
// return the numeric value with its unit appended

>  <compound.smiles>
Clc1ccc(C#CCOc2nsnc2C23CN4CC2C3C4)cc1

>  <Max>
102%

$$$$
>  <compound.smiles>
Fc1ccc(C#CCOc2nsnc2C23CN4CC2C3C4)cc1

>  <Max>
109%

$$$$

For Muscarinic acetylcholine receptor M2 (Homo sapiens) (UniProt P08172), provide Max of Fc1cccc(C#CCSc2nsnc2C23CN4CC2C3C4)c1 please. 106%

Okay, and Clc1cc(Cl)cc(C#CCOc2nsnc2C23CN4CC2C3C4)c1 ? 23%

Okay, and Fc1cc(F)cc(C#CCSc2nsnc2C23CN4CC2C3C4)c1 ? 79%

Okay, and Clc1ccc(C#CCSc2nsnc2C23CN4CC2C3C4)cc1 ? 76%

Okay, and Clc1cc(Cl)cc(C#CCSc2nsnc2C23CN4CC2C3C4)c1 ? 84%

Okay, and Clc1cccc(C#CCOc2nsnc2C23CN4CC2C3C4)c1 ? 101%

Okay, and CN1CCC=C(c2nsnc2OCC#Cc2ccccc2)C1 ? 115%

Okay, and C(#Cc1ccccc1)CSc1nsnc1C12CN3CC1C2C3 ? 106%

Okay, and Fc1ccc(C#CCSc2nsnc2C23CN4CC2C3C4)cc1 ? 88%

Okay, and Fc1cc(Cl)cc(C#CCSc2nsnc2C23CN4CC2C3C4)c1 ? 90%

Okay, and Fc1cc(F)cc(C#CCOc2nsnc2C23CN4CC2C3C4)c1 ? 68%

Okay, and Fc1cc(Cl)cc(C#CCOc2nsnc2C23CN4CC2C3C4)c1 ? 76%

Okay, and Clc1cccc(C#CCSc2nsnc2C23CN4CC2C3C4)c1 ? 96%

###

Biological target: Muscarinic acetylcholine receptor M2 (Rattus norvegicus, UniProt P10980)
Sequence (P10980 whole entry): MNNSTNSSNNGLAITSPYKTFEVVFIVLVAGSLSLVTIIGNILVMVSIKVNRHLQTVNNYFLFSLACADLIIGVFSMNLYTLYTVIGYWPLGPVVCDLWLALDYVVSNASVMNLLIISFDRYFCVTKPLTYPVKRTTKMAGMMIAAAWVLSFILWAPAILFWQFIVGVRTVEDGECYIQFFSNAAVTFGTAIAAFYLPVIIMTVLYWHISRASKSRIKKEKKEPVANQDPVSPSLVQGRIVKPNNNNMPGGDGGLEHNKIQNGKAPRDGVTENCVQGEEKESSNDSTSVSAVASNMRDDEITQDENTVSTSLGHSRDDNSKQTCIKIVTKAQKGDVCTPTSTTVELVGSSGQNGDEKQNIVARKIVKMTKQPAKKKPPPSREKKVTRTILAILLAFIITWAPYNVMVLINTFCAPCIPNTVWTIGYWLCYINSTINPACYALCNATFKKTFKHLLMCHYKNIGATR
Test: Inhibition of [3H]- Oxo-M binding at Muscarinic acetylcholine receptor M2 in rat brain membranes.
Assay type: cell membranes
Rule: measured IC50 below 20 nM gets yes; anything equal to or greater than 20 nM gets no.

>  <compound.smiles>
Fc1cc(F)cc(C#CCOc2nsnc2C23CN4CC2C3C4)c1

>  <class.label>
no

$$$$
>  <compound.smiles>
Clc1cc(Cl)cc(C#CCOc2nsnc2C23CN4CC2C3C4)c1

>  <class.label>
no

$$$$

Is the reported IC50 for C(#Cc1ccccc1)COc1nsnc1C12CN3CC1C2C3 strictly below 20 nM? yes

Okay, and Clc1cccc(C#CCSc2nsnc2C23CN4CC2C3C4)c1 ? no

Okay, and Clc1cc(Cl)cc(C#CCSc2nsnc2C23CN4CC2C3C4)c1 ? no

Okay, and Fc1cccc(C#CCOc2nsnc2C23CN4CC2C3C4)c1 ? no

Okay, and Clc1ccc(C#CCSc2nsnc2C23CN4CC2C3C4)cc1 ? no

Okay, and Fc1ccc(C#CCOc2nsnc2C23CN4CC2C3C4)cc1 ? yes

Okay, and Fc1cc(F)cc(C#CCSc2nsnc2C23CN4CC2C3C4)c1 ? no

Okay, and C(#Cc1ccccc1)CSc1nsnc1C12CN3CC1C2C3 ? no

Okay, and Clc1cccc(C#CCOc2nsnc2C23CN4CC2C3C4)c1 ? no
